Measured EC50 of individual entries
Target: Peroxisome proliferator-activated receptor gamma/Nuclear receptor coactivator 1 (Homo sapiens, UniProt P37231)
Sequence (P37231 whole entry): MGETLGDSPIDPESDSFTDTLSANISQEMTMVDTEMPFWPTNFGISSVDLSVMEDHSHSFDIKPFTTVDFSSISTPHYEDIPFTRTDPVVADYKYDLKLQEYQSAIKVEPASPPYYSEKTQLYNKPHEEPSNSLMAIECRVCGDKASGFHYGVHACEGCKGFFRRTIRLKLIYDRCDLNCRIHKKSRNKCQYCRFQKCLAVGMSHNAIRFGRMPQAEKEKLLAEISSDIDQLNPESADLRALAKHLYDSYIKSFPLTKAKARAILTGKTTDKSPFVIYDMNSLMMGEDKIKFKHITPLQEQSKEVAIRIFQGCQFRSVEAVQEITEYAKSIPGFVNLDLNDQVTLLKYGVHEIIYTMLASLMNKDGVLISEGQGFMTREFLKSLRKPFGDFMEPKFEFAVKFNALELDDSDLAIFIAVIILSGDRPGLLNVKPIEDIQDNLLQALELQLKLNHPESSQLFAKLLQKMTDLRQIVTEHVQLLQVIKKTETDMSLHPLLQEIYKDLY
Sequence (Q15788 whole entry, further chain): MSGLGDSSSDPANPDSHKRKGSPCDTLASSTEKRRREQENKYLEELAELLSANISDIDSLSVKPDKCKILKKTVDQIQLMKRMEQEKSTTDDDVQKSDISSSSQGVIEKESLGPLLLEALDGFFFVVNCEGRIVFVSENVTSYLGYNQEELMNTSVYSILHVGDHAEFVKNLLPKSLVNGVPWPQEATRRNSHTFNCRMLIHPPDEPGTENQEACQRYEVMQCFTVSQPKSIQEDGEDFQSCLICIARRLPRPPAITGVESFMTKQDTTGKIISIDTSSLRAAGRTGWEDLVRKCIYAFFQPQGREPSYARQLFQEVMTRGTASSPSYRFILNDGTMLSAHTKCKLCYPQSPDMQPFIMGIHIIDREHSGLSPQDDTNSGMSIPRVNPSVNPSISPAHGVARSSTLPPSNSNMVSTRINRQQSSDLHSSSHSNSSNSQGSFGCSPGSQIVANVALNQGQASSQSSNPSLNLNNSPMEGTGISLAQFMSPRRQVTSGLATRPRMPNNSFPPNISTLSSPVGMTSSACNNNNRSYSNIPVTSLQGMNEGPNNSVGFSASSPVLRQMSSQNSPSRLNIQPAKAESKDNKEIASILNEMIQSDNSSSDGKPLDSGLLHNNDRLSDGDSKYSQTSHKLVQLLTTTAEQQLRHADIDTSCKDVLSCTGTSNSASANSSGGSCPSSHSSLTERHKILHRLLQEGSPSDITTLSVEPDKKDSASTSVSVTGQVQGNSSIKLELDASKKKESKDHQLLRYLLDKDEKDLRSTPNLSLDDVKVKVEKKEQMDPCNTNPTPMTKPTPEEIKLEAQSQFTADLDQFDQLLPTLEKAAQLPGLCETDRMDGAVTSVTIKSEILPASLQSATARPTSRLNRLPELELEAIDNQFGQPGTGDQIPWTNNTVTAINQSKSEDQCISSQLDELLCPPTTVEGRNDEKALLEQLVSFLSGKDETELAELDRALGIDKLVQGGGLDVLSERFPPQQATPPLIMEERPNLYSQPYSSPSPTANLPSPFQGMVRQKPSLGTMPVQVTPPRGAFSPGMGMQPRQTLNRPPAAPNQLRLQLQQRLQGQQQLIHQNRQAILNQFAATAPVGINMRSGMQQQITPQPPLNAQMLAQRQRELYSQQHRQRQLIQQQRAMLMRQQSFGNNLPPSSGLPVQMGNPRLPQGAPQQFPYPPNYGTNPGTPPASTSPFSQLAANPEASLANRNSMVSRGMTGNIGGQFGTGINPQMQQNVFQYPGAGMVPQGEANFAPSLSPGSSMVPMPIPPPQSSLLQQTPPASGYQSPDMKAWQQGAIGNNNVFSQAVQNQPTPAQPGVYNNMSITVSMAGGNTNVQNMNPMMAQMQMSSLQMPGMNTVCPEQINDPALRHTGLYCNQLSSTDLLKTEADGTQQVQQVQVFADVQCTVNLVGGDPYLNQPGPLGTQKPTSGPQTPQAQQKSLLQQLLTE
Assay: TR-FRET dose response biochemical High Throughput Screening assay for agonists of the steroid receptor coactivator 1 (SRC-1) recruitment by the peroxisome proliferator-activated receptor gamma (PPAR gamma): non-selective agonists. [Related pubchem assays (depositor defined):AID1300, AID1808, AID504735, AID631]
Type: protein assay
Active and inactive are the calls of the source.

Problem: GET /values?readout=EC50&item= O=C(Nc1nc(-c2ccc(S(=O)(=O)N3CCCCCC3)cc2)cs1)c1ccccc1
Solution: 13.3 µM (inactive)

----------
Biological target: Carboxy-terminal domain RNA polymerase II polypeptide A small phosphatase 1 (Homo sapiens, UniProt Q9GZU7)
Sequence (Q9GZU7 whole entry, the tested form may be a part): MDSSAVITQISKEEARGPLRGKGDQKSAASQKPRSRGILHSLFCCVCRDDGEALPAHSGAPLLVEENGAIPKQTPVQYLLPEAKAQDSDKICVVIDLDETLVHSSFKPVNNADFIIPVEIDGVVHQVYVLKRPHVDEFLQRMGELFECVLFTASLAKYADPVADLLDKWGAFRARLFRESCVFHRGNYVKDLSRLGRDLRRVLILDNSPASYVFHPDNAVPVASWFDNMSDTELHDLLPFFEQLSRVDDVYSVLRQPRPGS
Experiment: CTDSP1 inhibitors, concentration-response, biochemical, absorbance readout, ultra-high-throughput screen actives (AID 540297)
Assay type: functional
Activity calls are given as the source filed them.
Measured IC50 of individual entries

> print(dat)
                               entry.smiles  recorded.endpoint    endpoint.value
1  N=C1/C(=C/c2ccco2)C(=O)N=C2SC(CC(=O)N3CCCC3)=NN12               IC50  7.01 µM (active)
2  O=C(N/N=C\C=C\c1ccco1)c1cc(-c2ccc3ccccc3c2)[nH]n1               IC50  2.96 µM (active)

Problem: GET /values?readout=IC50&item= O=C(COC(=O)c1cncc(Br)c1)NCc1ccco1
Solution: 4.6 µM (active)

Problem: Next: Cc1cccc2sc(NC(=O)C3CCN(S(=O)(=O)c4cc([N+](=O)[O-])ccc4Cl)CC3)nc12
Solution: 3.44 µM (active)

Problem: Next: O=C(O)c1ccccc1-c1c2cc(I)c(=O)c(I)c-2oc2c(I)c(O)c(I)cc12
Solution: 1.89 µM (active)

Problem: Next: N#C/C(=C\c1ccc(OCc2ccc(Br)cc2)cc1)C(=O)Nc1cccc(C(=O)O)c1
Solution: 1.83 µM (active)

Problem: Next: O=C(O)c1ccc(COc2ccccc2C=C2C(=O)c3ccccc3C2=O)cc1
Solution: 5.86 µM (active)

Problem: Next: Cc1ccc(C(=O)NN2CC(=O)C(c3nc(-c4cccc([N+](=O)[O-])c4)cs3)=C2N)cc1
Solution: 4.06 µM (active)

Problem: Next: COc1cc(/C=C/c2cc[n+](C)cc2)ccc1OCC(=O)Nc1ccccc1
Solution: 5.84 µM (active)

----------
Measured AC50 of individual entries
Molecular target: Cytochrome P450 3A4 (Homo sapiens, UniProt P08684);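 note: CYP3A4 tested as one member of a cytochrome P450 panel screen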
Sequence (P08684 whole entry): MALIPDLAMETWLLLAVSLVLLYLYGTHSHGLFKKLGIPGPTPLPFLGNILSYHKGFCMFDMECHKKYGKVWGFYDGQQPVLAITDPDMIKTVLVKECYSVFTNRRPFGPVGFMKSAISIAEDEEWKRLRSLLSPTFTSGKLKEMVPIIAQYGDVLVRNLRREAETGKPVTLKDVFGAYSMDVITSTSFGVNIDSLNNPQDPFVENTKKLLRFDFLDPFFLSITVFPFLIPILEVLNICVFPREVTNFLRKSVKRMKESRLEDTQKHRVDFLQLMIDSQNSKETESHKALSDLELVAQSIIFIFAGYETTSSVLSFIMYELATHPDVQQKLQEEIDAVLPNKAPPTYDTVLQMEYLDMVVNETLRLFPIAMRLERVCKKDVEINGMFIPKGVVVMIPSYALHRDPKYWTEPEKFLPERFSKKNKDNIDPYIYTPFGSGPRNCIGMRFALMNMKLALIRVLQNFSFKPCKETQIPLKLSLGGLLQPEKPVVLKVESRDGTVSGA

Examples with their reported AC50 follow.
> print(dat)
                                   molecule          endpoint.value
1  Cc1ccccc1C(=O)NC(NCc1ccco1)C(Cl)(Cl)Cl (centres undefined)  25.1 µM (inconclusive)
2  COc1ccc(/C=C2/SC(N/N=C3\CC4CCC3(C)C4(C)C)=NC2=O)cc1 (centres undefined)  12.6 µM (inconclusive)
3  COC(=O)[C@@H]1CC[C@H](C)[C@@H](c2ccc(C)cc2)N1C(=O)c1ccc(/C=N\OC[C@@H]2O[C@H](c3ccccc3)C=C[C@@H]2Oc2ccc(OC)cc2)cc1  3.16 µM (inconclusive)

Here is another molecule to look at.
Problem: GET /values?readout=AC50&item= COCCNC(=O)/C(C#N)=C/c1ccc(-c2ccc(OC)cc2[N+](=O)[O-])o1
Solution: 3.16 µM (inconclusive)

----------
Measured EC50 of individual entries
Target: Heat shock factor protein 1 (Mus musculus, UniProt P38532)
Sequence (P38532 whole entry): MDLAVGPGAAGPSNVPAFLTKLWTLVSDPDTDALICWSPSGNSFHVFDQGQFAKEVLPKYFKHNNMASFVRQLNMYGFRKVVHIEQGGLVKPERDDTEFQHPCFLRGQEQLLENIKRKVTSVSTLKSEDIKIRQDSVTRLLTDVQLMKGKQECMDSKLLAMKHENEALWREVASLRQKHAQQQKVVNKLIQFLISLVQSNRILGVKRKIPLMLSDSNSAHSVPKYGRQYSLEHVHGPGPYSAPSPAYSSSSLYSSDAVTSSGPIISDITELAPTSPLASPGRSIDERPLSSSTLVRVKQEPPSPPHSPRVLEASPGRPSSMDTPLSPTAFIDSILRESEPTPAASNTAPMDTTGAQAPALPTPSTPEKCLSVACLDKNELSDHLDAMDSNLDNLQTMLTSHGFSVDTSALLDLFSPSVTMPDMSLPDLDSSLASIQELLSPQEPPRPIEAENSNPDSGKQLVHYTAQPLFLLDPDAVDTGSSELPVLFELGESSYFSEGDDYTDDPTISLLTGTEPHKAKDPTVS
Assay: decrease of HSF1-responsive luciferase luminescence – cell-based, NIH3T3, dose retest, confirmation (AID 2382);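 note: NIH3T3 fibroblasts with HSF1-driven luciferase reporter stressed by proteasome inhibitor MG132; luminescence from HSF1-driven luciferase expression after 8 hours of MG132 stress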
Assay type: functional
Structures can show the parent of a compound that is named as a salt. Activity calls are given as the source filed them.

> print(dat)
                                   compound         endpoint.value
1  Cc1ccsc1/C=C/C1=NCCCN1C [MORANTEL TARTRATE]  > 195 µM (not active)
2         NC(=O)Cc1ccc(C(=O)c2ccc(Cl)cc2)s1  > 195 µM (not active)
3  CCCN1CCC(=O)N([C@H](CSc2ccccc2)Cc2ccccc2)CC1  > 195 µM (not active)
4  COc1ccc(NC(=O)CCN2CCN(S(=O)(=O)c3ccc(OC)cc3)CC2)cc1  > 195 µM (not active)

Problem: GET /values?readout=EC50&item= O=C(OCCN1CCN(c2ncc(C(F)(F)F)cc2Cl)CC1)c1ccc(Cl)cc1
Solution: > 195 µM (not active)

Problem: Next: COc1ccc(C2NS(=O)(=O)N=C2N)cc1 (stereo not drawn)
Solution: > 195 µM (not active)

Problem: Next: Cc1ccc(C2CCN(C(S)=NC(C)(C)C)C2)cc1 (stereo not drawn)
Solution: > 195 µM (not active)

Problem: Next: O=C(NC(=S)Nc1ccc(F)cc1)c1ccc2c(c1)OCCO2
Solution: > 195 µM (not active)

Problem: Next: Cc1ccc(C(=O)Nc2ccc(C(=O)O)cc2NC(=O)c2ccc(C)cc2)cc1
Solution: 14.7 µM (active)

----------
Biological target: Heat shock protein HSP 90-alpha (Homo sapiens, UniProt P07900)
Assay type: functional, organism-based
Active and inactive are the calls of the source.
recorded.endpoint: AC50

> print(dat)
                                   compound    endpoint.value
1   Cc1ccc(CSc2nc3ccsc3c(=O)n2Cc2ccccn2)cc1     5 µM (active)
2        CN(C)/C=C/C(=O)c1ccc(Oc2ccccc2)cc1  4.26 µM (active)
3  N#C/C(=C\c1cccc([N+](=O)[O-])c1)C(=O)NCc1ccc(Cl)cc1  1.93 µM (active)
4           Oc1c(Br)cc(Br)cc1/C=N/Cc1ccccc1  5.31 µM (active)

Here is another compound to look at.
Problem: GET /values?readout=AC50&item= CC(=O)OC1(C)CC(C)C(=O)C(C(O)CC2CC(=O)NC(=O)C2)C1 (stereo not given)
Solution: < 0.195 µM (active)

----------
Target: Paired box protein Pax-8 (Homo sapiens, UniProt Q06710)
Sequence (Q06710 whole entry): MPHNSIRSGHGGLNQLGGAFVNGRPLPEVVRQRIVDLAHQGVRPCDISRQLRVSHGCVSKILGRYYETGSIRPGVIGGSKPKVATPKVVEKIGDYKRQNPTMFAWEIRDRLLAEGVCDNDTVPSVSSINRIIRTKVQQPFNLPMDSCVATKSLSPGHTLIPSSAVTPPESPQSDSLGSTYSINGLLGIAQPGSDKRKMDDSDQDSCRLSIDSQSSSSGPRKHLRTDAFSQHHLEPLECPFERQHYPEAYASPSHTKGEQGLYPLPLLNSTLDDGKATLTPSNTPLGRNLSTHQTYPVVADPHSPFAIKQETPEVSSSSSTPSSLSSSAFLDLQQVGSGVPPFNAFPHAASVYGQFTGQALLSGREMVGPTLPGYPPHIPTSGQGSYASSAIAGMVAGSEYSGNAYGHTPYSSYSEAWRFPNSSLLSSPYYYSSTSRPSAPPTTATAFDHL
Test: PAX8 transcriptional activity inhibition in RMG-I – RMG-I cells, luciferase, cherry-pick, dose response (AID 687027);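 note: luciferase reporter driven by Pax8 target thyroperoxidase promoter measured by SteadyGlo luminescence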
Assay type: functional, cell-based
Calls of active or inactive are those of the source.
recorded.endpoint: AC50

Examples with their reported AC50 follow.
> print(dat)
                                   compound                         system.under.test    endpoint.value
1  O[C@@H]1[C@@H](O)C=C2CCN3Cc4cc5c(cc4[C@H]1C23)OCO5 (stereo not given in full)  Paired box protein Pax-8 (Homo sapiens, UniProt Q06710)  1.88 µM (active)
2         O=c1c2ccccc2cnn1-c1nc2ccccc2[nH]1  Paired box protein Pax-8 (Homo sapiens, UniProt Q06710)  1.65 µM (active)
3      Oc1ccc(N=Nc2ccccc2C(F)(F)F)c2cccnc12  Paired box protein Pax-8 (Homo sapiens, UniProt Q06710)  4.15 µM (active)

Problem: GET /values?readout=AC50&item= COc1cc(OC)c2c(-c3cccc(-c4ccc(OC)c(F)c4)c3)cc(=O)oc2c1
Solution: 1.08 µM (active)

Problem: Next: C[C@H]1CN([C@@H](C)CO)S(=O)(=O)c2ccc(C#CC3CCCC3)cc2O[C@@H]1CN(C)Cc1cccnc1
Solution: 14.4 µM (active)

Problem: Next: Cc1ccc(S(=O)(=O)Nc2ccc3c(c2)C(=O)N([C@H](C)CO)C[C@H](C)[C@H](CN(C)Cc2ccc(C(F)(F)F)cc2)OCCCC[C@H](C)O3)cc1
Solution: 9.98 µM (active)

Problem: Next: COc1ccc(S(=O)(=O)Nc2ccc3c(c2)CC(=O)N([C@H](C)CO)C[C@H](C)[C@@H](CN(C)Cc2ccc(Cl)c(Cl)c2)O3)cc1
Solution: 16.2 µM (active)

Problem: Next: C[C@H]1CCCCO[C@H](CN(C)S(=O)(=O)c2ccc(Cl)cc2)[C@@H](C)CN([C@@H](C)CO)C(=O)c2cc(NS(=O)(=O)c3ccc(F)cc3)ccc2O1
Solution: 8.27 µM (active)

Problem: Next: Cc1ccc(S(=O)(=O)Nc2ccc3c(c2)C(=O)N([C@@H](C)CO)C[C@@H](C)[C@@H](CN(C)Cc2ccc(C(F)(F)F)cc2)OCCCC[C@@H](C)O3)cc1
Solution: 13.3 µM (active)

Problem: Next: CCCCn1nc(C(=O)Nc2cc(C(F)(F)F)ccc2N2CCOCC2)ccc1=O
Solution: 4.7 µM (active)

Problem: Next: C[C@H]1CCCCO[C@H](CN(C)Cc2ccc(C(F)(F)F)cc2)[C@@H](C)CN([C@@H](C)CO)C(=O)c2cc(NS(=O)(=O)c3cccs3)ccc2O1
Solution: 5.95 µM (active)

Problem: Next: CC[C@@]1(O)C(=O)OCc2c1cc1n(c2=O)Cc2cc3c(NC(=O)CN)cccc3nc2-1
Solution: 1.11 µM (active)

Measured values drawn from ChEMBL document CHEMBL1201862 for this set.
